The reported measurements were obtained from patent US20260028418A1.

Assign absorbance to each entry below.
- system.tested: T1, HER2-ECD-Fc (human, UniProt P04626 23-652)
- T1 construct: extracellular domain; Produced in FreeStyle 293F cells; also called HER2-ECD Fc fusion protein
- assay: ELISA on HER2-ECD-Fc; antibody at 5 × 10^-3 µg/mL
When you answer, write just the number.

absorbance in this record for hz39D2 (antibody, V domains shown, Humanized antibody, captured as IgG by anti-human IgG in SPR; also called humanized 39D2 antibody) VH: QVQLVQSGSELKKPGASVKVSCKASGYTFTNYGVNWVRQAPGQGLEWMGWINTHTGEPTYAEEFKGRFVFSLDTSVSTAYLQISSLKAEDTAVYYCARDDYYVRVDYWGQGTTVTVSS VL: DIQMTQSPSSLSASVGDRVTITCKASQDINSYLSWFQQKPGKAPKTLIYRANRLVDGVPSRFSGSGSGQDYTLTISSLQPEDFATYYCLQYDEFPWTFGQGTKVEIK : 2.29

# absorbance of 1G3 (antibody, V domains shown) VH: EVQLQQSGAELVKPGASVKLSCTASDFNIVDTYMHWVKQRPEQGLEWIGRIDPANGYTRYDPNFQGKATITADTSSNTAYLQLSSLTSEDTAVYYCARYYYGFYAMDYWGQGTTVTVSS VL: DIVMTQSHKFMSTSVGDRVSITCKASQDVSTAVAWYQQKPGQSPKLLIYSASYRYTGVPDRFTGSGSGTDFTFTISSVQAEDLAVYYCQQHYSTPPTFGGGTKLELK = 1.77

Field absorbance (entry hz8G11 (antibody, V domains shown, Humanized antibody, detected with anti-human IgG-HRP; also called humanized 8G11 antibody) VH: QVQLVQSGQEVKKPGASVKVSCKASGYSFTGYYMHWVRQAPGQGLEWIGHINPNNGGTSYNQKFKGRTTLTVDKSISTAYMELSRLRSDDTAVYYCAREEAFAYWGQGTLVTVSS VL: DIQMTQSPSSLSASVGDRVTISCRASQDISNYLNWYQQKPGKAPKLLIYYTSRLHSGVPSRFSGSGSGTDFSLTISSLQPEDIATYYCQQGITPPWTFGGGTKVEIK ) reads 1.67

Lab note: hz2G10 (antibody, V domains shown, Humanized antibody, detected with anti-human IgG-HRP; Only the variable domains are tied to the name; also called humanized 2G10 antibody) VH: EVQLVESGGGLVQPGGSLRLSCAASGFTFSDYYMYWVRQAPGKGLEWVAYINSGGGSTYYPDTVKGRFTISRDNAKNSLYLQMNSLRAEDTAVYYCAREALYDYDYAMDYWGQGTTVTVSS VL: DIVMTQSPLSLSVTPGQPASISCKSSQSLLYSNGKTYLNWLLQKPGQSPQRLIYLVSKLDSGVPDRFSGSGSGTDFTLKISRVEAEDVGVYYCVQGTHFPLTFGGGTKVEIK gave absorbance of 0.22
